# System: Fibroblast
# METHOD NOTES: Multiplex assay against human fibroblast
# Assay type: toxicity, cell-based
# SETUP CONDITIONS: 12 h, 10 µM, compound concentration 10 uM, replicate 1
MEASURE: Population Pyknosed Nuclei (%)
Please give a number only; it is taken to be in %.

Look up and report measured Population Pyknosed Nuclei (%) for this entry: "CCCCC1=NC2(CCCC2)C(=O)N1Cc1ccc(-c2ccccc2-c2nnn[nH]2)cc1"
13

Quote Population Pyknosed Nuclei (%) reported for "N#Cc1cc(F)cc(-c2nc(-c3ccc(F)cn3)no2)c1" please.
17

Hello, please tell me recorded Population Pyknosed Nuclei (%) for this one: "Cc1c(CC(=O)O)c2cccnc2n1Cc1ccc(S(C)(=O)=O)cc1C(F)(F)F"
17

Kindly indicate its recorded Population Pyknosed Nuclei (%). Item: "CC(/C=C1\SC(=S)N(CCCC(=O)Nc2ccc(C(=O)O)c(O)c2)C1=O)=C\c1ccccc1"
13

Name the recorded Population Pyknosed Nuclei (%) of the item "CCCOc1ccc2[nH]cc(C3=CCNCC3)c2n1.Cl" in your answer.
13

***
Give Population Pyknosed Nuclei (%) for "COc1ccccc1N1CCN(C[C@@H](C(=O)NC(C)(C)C)c2ccccc2)CC1.Cl.Cl"
20

Report measured Population Pyknosed Nuclei (%); entry is "CCCCC(=O)N(Cc1ccc(-c2ccccc2-c2nnn[nH]2)cc1)[C@H](C(=O)O)C(C)C"
22

* * *

# System: HEK-293T
# METHOD NOTES: Multiplex assay against HEK293T
# Format: toxicity, cell-based
# SETUP CONDITIONS: human, 48 h, 1 µM, compound concentration 1 uM, replicate 2
# Population Tubulin-Different-Phenotype (%) per record follows
# value in %; strip the unit string

Look up and report measured Population Tubulin-Different-Phenotype (%) for this entry: "COc1ccccc1N1CCN(C[C@@H](C(=O)NC(C)(C)C)c2ccccc2)CC1.Cl.Cl"
20

Give Population Tubulin-Different-Phenotype (%) for the following compound: "CCCCC1=NC2(CCCC2)C(=O)N1Cc1ccc(-c2ccccc2-c2nnn[nH]2)cc1"
8

Complete the entry with Population Tubulin-Different-Phenotype (%) for COC[C@@H](c1ccc(C(F)(F)F)cc1)N1CCN(C2(C)CCN(C(=O)c3c(C)ncnc3C)CC2)C[C@@H]1C.O=C(O)/C=C\C(=O)O [VICRIVIROC MALEATE]
8

// Input: "Cc1onc(-c2ccccc2Cl)c1C(=O)N(C)c1ccc(Cl)cc1" . Output its Population Tubulin-Different-Phenotype (%) only.
12

State, in one line, measured Population Tubulin-Different-Phenotype (%) of "CC(/C=C1\SC(=S)N(CCCC(=O)Nc2ccc(C(=O)O)c(O)c2)C1=O)=C\c1ccccc1"
13

State, in one line, measured Population Tubulin-Different-Phenotype (%) of "Cc1cnc(-c2cc(N3CCN(C(=O)CCS(C)(=O)=O)CC3)ncc2Cl)c(C)c1"
6

* * *

# Test system: HEK-293T
# METHOD NOTES: Multiplex assay against HEK293T
# Assay type: toxicity, cell-based
# SETUP CONDITIONS: human, 48 h, 1 µM, compound concentration 1 uM, replicate 2
MEASURE: Population Fragmented Nuclei (%)
Hi, when you answer, please include the unit after the number. Thanks!

Give me measured Population Fragmented Nuclei (%), please, for this molecule: Br.CS(=O)(=O)Nc1c(O)ccc2c1CCCC2C1=NCCN1 (stereo unspecified)
11%

Dear colleague, please send me the reported Population Fragmented Nuclei (%) for "Cc1cccc(NC(=O)CN2CCC(c3ccccn3)CC2)c1.Cl.Cl" when you can.
8%

Give reported Population Fragmented Nuclei (%) value for "COc1cccc2c1c(NS(=O)(=O)c1ccc(Cl)s1)nn2Cc1cccc(CNC(=O)C(C)(C)O)c1"
11%

Identify measured Population Fragmented Nuclei (%) corresponding to "CN(C)C(=O)Cn1cc(-c2ccc(-c3cncc4ccccc34)cc2)cn1"
11%

Assign Population Fragmented Nuclei (%) to the following record: "CCc1cc2cc(NS(=O)(=O)c3ccc(C#N)cc3)ccc2n(CC)c1=O"
14%

Specify measured Population Fragmented Nuclei (%) for "O=C1[C@H](Cc2ccc(O)cc2)N2C(=O)CCN(C(=O)NCc3ccccc3)[C@H]2CN1Cc1cccc2ccccc12" .
11%

Please look at this molecule and report its Population Fragmented Nuclei (%): "CC(=O)Nc1cccc2c1c(Sc1ccc(Cl)cc1)c(C)n2CC(=O)O"
13%

Supply Population Fragmented Nuclei (%) value. Item: "Cc1noc(-c2ccc(-c3ccc(CC(=O)O)cc3)cc2)c1NC(=O)O[C@H](C)c1ccccc1Cl"
12%

More entries:
Return Population Fragmented Nuclei (%) for the following molecule: "CC(/C=C1\SC(=S)N(CCCC(=O)Nc2ccc(C(=O)O)c(O)c2)C1=O)=C\c1ccccc1"
14%

Return Population Fragmented Nuclei (%) for the following molecule: "CCCCC1=NC2(CCCC2)C(=O)N1Cc1ccc(-c2ccccc2-c2nnn[nH]2)cc1"
9%

Quick one: give measured Population Fragmented Nuclei (%) for "NCCc1cn(S(=O)(=O)c2c(Cl)nc3sccn23)c2ccccc12.O=C(O)C(=O)O"
12%

Name the recorded Population Fragmented Nuclei (%) of the molecule listed here: Cl.N=C(N)NC(=O)Cc1c(Cl)cccc1Cl [GUANFACINE HYDROCHLORIDE]
10%

Input "N#Cc1cc(F)cc(-c2nc(-c3ccc(F)cn3)no2)c1" , output reported Population Fragmented Nuclei (%).
11%

Given "N#Cc1c(Oc2cccc(OS(=O)(=O)CCCC(F)(F)F)c2)cccc1C(F)(F)F" , respond with its Population Fragmented Nuclei (%).
12%

Given the molecule CCCCCC(O)/C=C/[C@H]1C(=O)CC(O)C1C/C=C\CCCC(=O)O (stereo partly specified) , write its reported Population Fragmented Nuclei (%).
13%

* * *

# Tested on: U2OS
# METHOD NOTES: Multiplex assay against U2OS
# Assay type: toxicity, cell-based
# SETUP CONDITIONS: human, 24 h, 1 µM, compound concentration 1 uM, replicate 2
MEASURE: Population Normal (%)
Response body: numeric value in %, unit text excluded.

Using the record for CC(C)COc1ccc(CNC(=O)N(Cc2ccc(F)cc2)C2CCN(C)CC2)cc1 [PIMAVANSERIN] , state its measured Population Normal (%).
98

Identify Population Normal (%) associated with the molecule "CCCCC(=O)N(Cc1ccc(-c2ccccc2-c2nnn[nH]2)cc1)[C@H](C(=O)O)C(C)C"
93

Dear colleague, please send me the reported Population Normal (%) for CC(=O)Nc1cccc2c1c(Sc1ccc(Cl)cc1)c(C)n2CC(=O)O [AZD1981] when you can.
100

Return Population Normal (%) for the following molecule: "CCc1cc2cc(NS(=O)(=O)c3ccc(C#N)cc3)ccc2n(CC)c1=O"
98

Annotate the molecule "Cc1cccc(NC(=O)CN2CCC(c3ccccn3)CC2)c1.Cl.Cl" with its measured Population Normal (%).
99

Further cases:
Retrieve Population Normal (%) measured for "O=C(CCCc1ccccc1)Nc1nc2ccccc2c(=O)s1" and print it.
100

Please look at this molecule and report its Population Normal (%): Cc1sc2c(c1C)C(c1ccc(Cl)cc1)=N[C@@H](CC(=O)NCCCCCCCCNC(=O)COc1cccc3c1C(=O)N(C1CCC(=O)NC1=O)C3=O)c1nnc(C)n1-2 (some centres undefined)
97

Specify Population Normal (%) for CC(C)(C)c1cc(NC(=O)Nc2ccc(-c3cn4c(n3)sc3cc(OCCN5CCOCC5)ccc34)cc2)no1 [QUIZARTINIB] and stop.
99

Please report Population Normal (%) for the following molecule: "N#Cc1c(Oc2cccc(OS(=O)(=O)CCCC(F)(F)F)c2)cccc1C(F)(F)F"
98

Annotate the molecule "CC(/C=C1\SC(=S)N(CCCC(=O)Nc2ccc(C(=O)O)c(O)c2)C1=O)=C\c1ccccc1" with its measured Population Normal (%).
98

Identify the reported Population Normal (%) for the following entry. "Cc1onc(-c2ccccc2Cl)c1C(=O)N(C)c1ccc(Cl)cc1"
98

Return the recorded Population Normal (%) value; entry: CCCCCC(O)/C=C/[C@H]1C(=O)CC(O)C1C/C=C\CCCC(=O)O (some centres undefined)
99

Recall and state the measured Population Normal (%) for Br.CS(=O)(=O)Nc1c(O)ccc2c1CCCC2C1=NCCN1 (centres undefined) .
98

Dear colleague, please send me the reported Population Normal (%) for "CCCOc1ccc2[nH]cc(C3=CCNCC3)c2n1.Cl" when you can.
97

* * *

Population Apoptotic (%) by entry:
# Tested on: Fibroblast
# METHOD NOTES: Multiplex assay against human fibroblast
# Format: toxicity, cell-based
# SETUP CONDITIONS: 12 h, 1 µM, compound concentration 1 uM, replicate 1
Enter your answer as a number in %; do not include the unit.

Known Population Apoptotic (%) results, listed for orientation:
Tell me Population Apoptotic (%) reported for CC(C)COc1ccc(CNC(=O)N(Cc2ccc(F)cc2)C2CCN(C)CC2)cc1 [PIMAVANSERIN]
65

Name the recorded Population Apoptotic (%) of the compound listed here: COC[C@@H](c1ccc(C(F)(F)F)cc1)N1CCN(C2(C)CCN(C(=O)c3c(C)ncnc3C)CC2)C[C@@H]1C.O=C(O)/C=C\C(=O)O [VICRIVIROC MALEATE]
36

Moving on to the next compound.
In one line, give reported Population Apoptotic (%) of the entry "O=C1[C@H](Cc2ccc(O)cc2)N2C(=O)CCN(C(=O)NCc3ccccc3)[C@H]2CN1Cc1cccc2ccccc12" .
32
